The reported numbers originate from patent US20250152746A1.

Test system: ANGPTL3 gene
assayText: ANGPTL3 gRNA/SpCas9 editing in primary human hepatocytes (Table 3)
Assay type: cell-based
Each item that follows carries a reported Human Primary Hepatocyte Editing % 500 ng/mL.
Give a bare numeral; the unit % is implied.

GA122: ANGPTL3 gRNA; protospacer CTTTTATTTGACTATGCTGT (SEQ ID NO: 120) (nucleic acid, 2'-O-methyl at 1, 2, other sugars, backbone and T or U not given here; further chemistry not fully specified) guide: CUTTTATTTGACTATGCTGTGTTTTAGAGCTAGAAATAGCAAGTTAAAATAAGGCTAGTCCGTTATCAACTTGAAAAAGTGGCACCGAGTCGGTGCTTTT ... 13.82

Next molecule, please.
Tell me the measured Human Primary Hepatocyte Editing % 500 ng/mL of GA111: ANGPTL3 gRNA; protospacer GCCAATGGCCTCCTTCAGTT (SEQ ID NO: 109) (nucleic acid, 2'-O-methyl at 1, 2, other sugars and backbone not given here; further chemistry not fully specified) guide: GCCAATGGCCTCCTTCAGTTGTTTTAGAGCTAGAAATAGCAAGTTAAAATAAGGCTAGTCCGTTATCAACTTGAAAAAGTGGCACCGAGTCGGTGCTTTT , please.
24.08
